experiment: Cytotoxicity against mock-infected human MT4 cells by MTT assay; type: cell-based
property.name: CC50

Guide cases for CC50, answers given:
# CC50 of Cn1cc(C(=O)O)c(=O)c2cc(O)c(N3CCN(c4cccc(C(F)(F)F)c4)CC3)cc21 = 1.13 µg/mL

So, COc1cc2c(=O)c(C(=O)O)cn(C)c2cc1N1CCN(c2ccccn2)CC1 ? Its CC50 was 2.55 µg/mL

Looking up Cc1cn([C@H]2C[C@H](N=[N+]=[N-])[C@@H](CO)O2)c(=O)[nH]c1=O [ZIDOVUDINE] , I see its CC50 listed as 2.01 µg/mL

CC50 reading for Cn1cc(C(=O)O)c(=O)c2cc(O)c(N3CCN(c4ccccn4)CC3)cc21 : > 125 µg/mL

Consider Cn1cc(C(=O)O)c(=O)c2cc(C(F)(F)F)c(N3CCN(c4nc5ccccc5s4)CC3)cc21 . Its measured CC50 is 0.54 µg/mL

Consider Cn1cc(C(=O)O)c(=O)c2cc(O)c(N3CCN(c4cnccn4)CC3)cc21 . Its measured CC50 is > 125 µg/mL

Others:
Record Cn1cc(C(=O)O)c(=O)c2cc(C(F)(F)F)c(N3CCN(c4cccc(C(F)(F)F)c4)CC3)cc21 . Reported CC50: 1.65 µg/mL

Item: Cn1cc(C(=O)O)c(=O)c2cc(C(F)(F)F)c(N3CCN(c4ccccn4)CC3)cc21 | CC50: 13.9 µg/mL

Briefly, CC50 measured for COc1cc2c(=O)c(C(=O)O)cn(C)c2cc1N1CCN(c2nc3ccccc3s2)CC1 : 0.05 µg/mL

Form: compound = Cn1cc(C(=O)O)c(=O)c2cc(O)c(N3CCN(c4ccc5ccccc5n4)CC3)cc21 ; CC50 = 0.47 µg/mL

CC50 measured on Cn1cc(C(=O)O)c(=O)c2cc(O)c(N3CCN(c4nc5ccccc5s4)CC3)cc21 = 0.02 µg/mL

Form: compound = Cc1ccnc2c1NC(=O)c1cccnc1N2C1CC1 [NEVIRAPINE] ; CC50 = > 4 µg/mL

---

tested on: Human immunodeficiency virus; experiment: Antiviral activity against HIV 3B in human MT4 cells assessed as inhibition of virus-induced cytopathogenicity by MTT assay; format: functional, organism-based; settings: Human immunodeficiency virus 1, 3B
property.name: EC50 (µg/mL)
All answers are understood in µg/mL, so give the number only.

Bench note, Human immunodeficiency virus: entry Cc1ccnc2c1NC(=O)c1cccnc1N2C1CC1 , its EC50 = 0.023

In the following, a different molecule is considered.
Sample Cn1cc(C(=O)O)c(=O)c2cc(O)c(N3CCN(c4ccccn4)CC3)cc21 , system: Human immunodeficiency virus. Its EC50 is 1.85

---

Recorded measurements of EC50, one per entry
tested on: Human immunodeficiency virus; assay: Antiviral activity against HIV 3B in PHA-stimulated human PBMC assessed as inhibition of p24 antigen production by ELISA; type: functional, organism-based; settings: Human immunodeficiency virus 1, 3B
Enter your answer as a number in µg/mL; do not include the unit.

Measured EC50, Cn1cc(C(=O)O)c(=O)c2cc(O)c(N3CCN(c4cccc(C(F)(F)F)c4)CC3)cc21 : 0.4

EC50 measured on Cn1cc(C(=O)O)c(=O)c2cc(O)c(N3CCN(c4ccc5ccccc5n4)CC3)cc21 = 0.26

The recorded EC50 for entry COc1cc2c(=O)c(C(=O)O)cn(C)c2cc1N1CCN(c2ccccn2)CC1 equals 1.78

# input for lookup
Notebook: Cn1cc(C(=O)O)c(=O)c2cc(O)c(N3CCN(c4ccccn4)CC3)cc21 , EC50 read as 0.39

---

test system: Human immunodeficiency virus; assay: Antiviral activity against HIV 3B in human MT4 cells assessed as inhibition of virus-induced cytopathogenicity by MTT assay; assay type: functional, organism-based; conditions: Human immunodeficiency virus 1, 3B
property.name: EC50 (µg/mL)
A number alone suffices; assume µg/mL.

Recorded EC50, per entry:
Per the record, Cn1cc(C(=O)O)c(=O)c2cc(O)c(N3CCN(c4ccc5ccccc5n4)CC3)cc21 has EC50 of 0.08

Briefly, EC50 measured for Cn1cc(C(=O)O)c(=O)c2cc(N)c(N3CCN(c4ccccn4)CC3)cc21 : 0.058

// EC50 lookup, compound = COc1cc2c(=O)c(C(=O)O)cn(C)c2cc1N1CCN(c2ccccn2)CC1 , result: 0.47

Next item in the queue.
For reference, reported EC50 for Cc1cn([C@H]2C[C@H](N=[N+]=[N-])[C@@H](CO)O2)c(=O)[nH]c1=O stands at 0.0015

---

assay: Selectivity index, ratio of CC50 for human MT4 cells to EC50 for HIV 3B; type: toxicity, cell-based; details: read-out: Ratio CC50/EC50
property.name: selectivity ratio

Item: Cc1cn([C@H]2C[C@H](N=[N+]=[N-])[C@@H](CO)O2)c(=O)[nH]c1=O | selectivity ratio: 1340

Field selectivity ratio (entry Cn1cc(C(=O)O)c(=O)c2cc(C(F)(F)F)c(N3CCN(c4nc5ccccc5s4)CC3)cc21 ) reads < 1

selectivity ratio for Cn1cc(C(=O)O)c(=O)c2cc(O)c(N3CCN(c4nc5ccccc5s4)CC3)cc21 is < 1

Sample Cn1cc(C(=O)O)c(=O)c2cc(O)c(N3CCN(c4ccccn4)CC3)cc21 ; selectivity ratio observed: > 68

// recorded selectivity ratio for Cc1ccnc2c1NC(=O)c1cccnc1N2C1CC1 : > 176

Next:
Per the record, Cn1cc(C(=O)O)c(=O)c2cc(N)c(N3CCN(c4ccccn4)CC3)cc21 has selectivity ratio of 15

selectivity ratio in this record for Cn1cc(C(=O)O)c(=O)c2cc(C(F)(F)F)c(N3CCN(c4ccccn4)CC3)cc21 : < 1

Form: molecule = COc1cc2c(=O)c(C(=O)O)cn(C)c2cc1N1CCN(c2nc3ccccc3s2)CC1 ; selectivity ratio = < 1

Query COc1cc2c(=O)c(C(=O)O)cn(C)c2cc1N1CCN(c2ccccn2)CC1 yields selectivity ratio of 5

Per the record, Cn1cc(C(=O)O)c(=O)c2cc(C(F)(F)F)c(N3CCN(c4cccc(C(F)(F)F)c4)CC3)cc21 has selectivity ratio of < 1

Lab book: selectivity ratio of Cn1cc(C(=O)O)c(=O)c2cc(O)c(N3CCN(c4ccc5ccccc5n4)CC3)cc21 noted as 6

Value of measured selectivity ratio for the entry Cn1cc(C(=O)O)c(=O)c2cc(O)c(N3CCN(c4cnccn4)CC3)cc21 : < 1

---

test: Cytotoxicity against mock-infected human PBMC; assay type: cell-based
Recorded CC50 for the following molecules
Note: unit µg/mL is implicit; provide only the numeric part.

Answered examples (2):
Sample Cn1cc(C(=O)O)c(=O)c2cc(O)c(N3CCN(c4cccc(C(F)(F)F)c4)CC3)cc21 ; CC50 observed: 1.61

Looking up COc1cc2c(=O)c(C(=O)O)cn(C)c2cc1N1CCN(c2ccccn2)CC1 , I see its CC50 listed as 8.46

Others:
The molecule Cn1cc(C(=O)O)c(=O)c2cc(O)c(N3CCN(c4ccc5ccccc5n4)CC3)cc21 showed CC50 equal to 1.91

---

assay: Selectivity index, ratio of IC50 for human PBMC to IC50 for HIV 3B
property.name: Ratio CC50/EC50
# output: bare number, no unit

The reported Ratio CC50/EC50 of the compound Cn1cc(C(=O)O)c(=O)c2cc(O)c(N3CCN(c4cccc(C(F)(F)F)c4)CC3)cc21 was 4

Record Cn1cc(C(=O)O)c(=O)c2cc(O)c(N3CCN(c4ccc5ccccc5n4)CC3)cc21 , field Ratio CC50/EC50: 7

Could you now consider this next compound?
Value of Ratio CC50/EC50 reported for the compound COc1cc2c(=O)c(C(=O)O)cn(C)c2cc1N1CCN(c2ccccn2)CC1 is 5

---

test: Selectivity index, ratio of CC50 for human MT4 cells to EC50 for HIV ROD; assay type: toxicity, cell-based; conditions: read-out: Ratio CC50/EC50
property.name: selectivity ratio

Check out these entries, answers already filled in.
Looking up Cn1cc(C(=O)O)c(=O)c2cc(O)c(N3CCN(c4ccccn4)CC3)cc21 , I see its selectivity ratio listed as > 96

For Cn1cc(C(=O)O)c(=O)c2cc(O)c(N3CCN(c4cnccn4)CC3)cc21 the compound record lists selectivity ratio as < 1

Cc1cn([C@H]2C[C@H](N=[N+]=[N-])[C@@H](CO)O2)c(=O)[nH]c1=O yielded selectivity ratio of 2480

Documented selectivity ratio of Cn1cc(C(=O)O)c(=O)c2cc(O)c(N3CCN(c4nc5ccccc5s4)CC3)cc21 : < 1

Input Cn1cc(C(=O)O)c(=O)c2cc(C(F)(F)F)c(N3CCN(c4nc5ccccc5s4)CC3)cc21 . Output selectivity ratio: < 1

# compound Cn1cc(C(=O)O)c(=O)c2cc(O)c(N3CCN(c4ccc5ccccc5n4)CC3)cc21 ; its selectivity ratio = 14

Entry Cn1cc(C(=O)O)c(=O)c2cc(C(F)(F)F)c(N3CCN(c4ccccn4)CC3)cc21 — recorded selectivity ratio = < 1

Please fill in: selectivity ratio reported for COc1cc2c(=O)c(C(=O)O)cn(C)c2cc1N1CCN(c2nc3ccccc3s2)CC1 = < 1

---
# compound Cn1cc(C(=O)O)c(=O)c2cc(N)c(N3CCN(c4ccccn4)CC3)cc21 ; its selectivity ratio = 10

Quick note, selectivity ratio for COc1cc2c(=O)c(C(=O)O)cn(C)c2cc1N1CCN(c2ccccn2)CC1 landed at 6.5

Sample Cn1cc(C(=O)O)c(=O)c2cc(C(F)(F)F)c(N3CCN(c4cccc(C(F)(F)F)c4)CC3)cc21 ; selectivity ratio observed: < 1
